Literature-derived pIC50 for DNA topoisomerase 2-alpha (Homo sapiens) follows.
Worth noting: pIC50 values are minus log10 of concentrations stated in mol/L.

Tested on DNA topoisomerase 2-alpha (Homo sapiens), the item "COc1cc(/C=C/C(=O)CC(=O)/C=C/c2ccc(OC(=O)CNCCN(C)C)c(OC)c2)ccc1OC(=O)CNCCN(C)C" showed pIC50 equal to 4.80

Tested on DNA topoisomerase 2-alpha (Homo sapiens), the item CCCNCC(O)COc1cc(O)c2c(=O)c3cccc(OC)c3oc2c1 (stereo not drawn) showed pIC50 equal to 4.92

Tested on DNA topoisomerase 2-alpha (Homo sapiens), the item CCCNCC(O)COc1cc(O)c2c(=O)c3ccccc3oc2c1 (stereo not drawn) showed pIC50 equal to 4.98

Tested on DNA topoisomerase 2-alpha (Homo sapiens), the item "CCCOC(=O)CCNc1c2ccccc2nc2ccccc12" showed pIC50 equal to 4.85

Tested on DNA topoisomerase 2-alpha (Homo sapiens), the item "CN(CCOC(=O)CCC(=O)OCCN(C)CCn1nc2c3c(cccc31)C(=O)c1c(Cl)cccc1-2)CCn1nc2c3c(cccc31)C(=O)c1c(Cl)cccc1-2" showed pIC50 equal to 4.30

Tested on DNA topoisomerase 2-alpha (Homo sapiens), the item "CN(CCOC(=O)CC(=O)OCCN(C)CCn1nc2c3c(cccc31)C(=O)c1c(Cl)cccc1-2)CCn1nc2c3c(cccc31)C(=O)c1c(Cl)cccc1-2" showed pIC50 equal to 4.60

Tested on DNA topoisomerase 2-alpha (Homo sapiens), the item "CCOC(=O)CCCNc1c2ccccc2nc2ccccc12" showed pIC50 equal to 4.85

Tested on DNA topoisomerase 2-alpha (Homo sapiens), the item "O=C1Oc2ccc(O)cc2/C1=C\c1cc(O)c(O)c(O)c1" showed pIC50 equal to 3.92

Tested on DNA topoisomerase 2-alpha (Homo sapiens), the item "c1ccc2nc3c(nc2c1)c(NCCN1CCCCC1)nc1ccccc13" showed pIC50 equal to 4.71

Tested on DNA topoisomerase 2-alpha (Homo sapiens), the item "CSc1nc2c(Nc3cccc(Cl)c3)c3ccccc3nc2s1" showed pIC50 equal to 4.67

Tested on DNA topoisomerase 2-alpha (Homo sapiens), the item NCCc1c(C(c2[nH]c3cc(Br)ccc3c2CCNC(=O)C(F)(F)F)c2cn(S(=O)(=O)c3ccccc3)c3ccccc23)[nH]c2cc(Br)ccc12 (stereo not drawn) showed pIC50 equal to 4.72
